The measured values listed here are drawn from patent US20150104459A1.

Recorded Trimeric HA Binding RLU values for a group of binders are listed next.
molecular target: recombinant soluble homotrimeric HA of A/California/4/09 (H1N1) (Influenza A virus A/California/04/2009 (H1N1)); assay: HA microarray, BCC supernatant; conditions: remark: other sources report otherwise
Answer with a number only, understood to be in RLU.

binder: TCN-533 (5256_A17) (antibody, V domains shown) VH: QVQLVQSGADVKKPGSSVTVSCKASGGSFSNYGINWVRQAPGQGLEWMGGIIPLINAPNYAPKFQGRVTITADMFSNIVSLQLTSLRTDDTAVYYCARRKMTTAIDYWGQGTLVTVSS VL: QPVLSQPPSASASLGASVTLTCTLSSGFDNYQVAWYQQRPGKGPRFVMRVGNGGNVASKGDGIPDRFSVSGSGLNRYLTIKNIQEDDESDYYCGADHGSGNNFVSPYVFGGGTKLTVL
unit-annotation: RLU
Trimeric HA Binding RLU: 29300
//
binder: TCN-528 (5087_P17) (antibody, V domains shown) VH: QVQLVQSGSEVKKPGASVKVSCKASGYTFTNYDINWIRQAPGQGLEWMGWINPNSGTTGSAQRFQGRVTITVDTSITTVYMELSSLRSDDTAIYYCARGRELLRLQHFLTDSQSERRDCFDPWGQGTLVTVSS VL: DIQMTQSPSSLSASVGDRVTITCRANQDIGIYLNWYQQNPGKVPKLLLHGASSLQGGVPSRFSASGSGTDFTLTIHSLQPEDLATYYCQQSRRLPYTFGQGTRVELK
unit-annotation: RLU
Trimeric HA Binding RLU: 48800
//
binder: TCN-530 (5248_H10a) (antibody, V domains shown) VH: QVQLVQSGAEVRKPGSSVKVSCKASGGPFMSYAIGWVRQAPGQGLEWMGGINPVFGRPHYAQKFQGRVTIATDDSTKTSYMELSSLTSEDTGMYYCASRYSRSSPGTFESWGQGTLVTVSS VL: EIVMTQFPATLSVSPGERVTLSCRASQSVSNNLAWYQQKPGQPPRLLIYDASTRATGVPAKFSGTGSGTEFTLSISSLQSEDFAVYYCQQYHNWPPSYSFGLGTKLEIK
unit-annotation: RLU
Trimeric HA Binding RLU: 46600
//
binder: TCN-555 (5246_L16) (antibody, V domains shown) VH: QVQLVQSGAEVKRPGSSVKVSCTASGGIFRKNAISWVRQAPGQGLEWMGGIIAVFNTANYAQKFQNRVKITADESGNTAYMELSSLTSDDTAVYYCASHPKYFYGSGSYPDFWGQGTLVTVSS VL: QSALTQPRSVSGSPGQSITISCTGGSSDIGASNSVSWYQQHPGKAPKLVIFDVTERPSGVPHRFSGSKSGNTASLTVSGLQPDDEADYFCCAYGGKYLVVFGGGTKVTVL
unit-annotation: RLU
Trimeric HA Binding RLU: 44900

The value of Trimeric HA Binding RLU measured for the binder TCN-534 (5249_B02) (antibody, V domains shown) VH: QVQLVQSGAEVKKPGSSVKVSCRESGGTFNGYTITWVRQAPGQGLEWMGGIIPMMGTVNYAQKLQGRVTITTDYFTKTAYMDLNNLRSEDTAMYYCVKIRYTGQQLLWGQGTLVTVSS VL: DIQMTQSPSTLSASIGDRVTITCRASQSIASWLAWYQQKPGKAPKLLIYEAVNLESGVPSRFSGSGSGTDFTLTISSLQPDDFATYFCQHYGTISQTFGGGTKVEIK turned out to be 30100
